Where these numbers come from: patent US7825160B2

# Test system: γ-secretase activity
# measurement_protocol: Screening for γ-secretase-modulating activity in SKN neuroblastoma cells carrying APP swedish mutant
# Type: cell-based
# settings: read-out: IC50 on the γ-secretase activity, Activity range
// IC50 lookup, one value per entry
observed_property: IC50

[[record]]
molecule = "O=C(O)Cc1cc(OCC2CCCCO2)cc(-c2ccc(C(F)(F)F)cc2)c1 (centres unmarked) [LII]"
measured_value = "100 to 300 µM"

[[record]]
molecule = "CCCC(C(=O)O)c1cc(OCc2ccc(S(=O)(=O)N3CCCC3)cc2)cc(-c2ccc(C(F)(F)F)cc2)c1 (centres unmarked) [XXXIX]"
measured_value = "1 to 10 µM"

[[record]]
molecule = "O=C(O)Cc1cc(OCc2ccccc2)cc(-c2cccc(OC(F)(F)F)c2)c1 [XXXVIII]"
measured_value = "1 to 10 µM"

[[record]]
molecule = "O=C(O)Cc1cc(OCc2ccccc2)cc(-c2cccc(Cl)c2)c1 [XXXVII]"
measured_value = "100 to 300 µM"

[[record]]
molecule = "CC(C(=O)O)c1cc(OCc2ccccc2)cc(-c2ccc(C(F)(F)F)cc2)c1 (centres unmarked) [XIX]"
measured_value = "1 to 10 µM"

[[record]]
molecule = "O=C(O)Cc1cc(OCc2ccccc2)cc(-c2ccc(F)cc2)c1 [XXII]"
measured_value = "10 to 100 µM"

[[record]]
molecule = "O=C(O)Cc1cc(OCc2ccccc2)cc(-c2cc(C(F)(F)F)cc(C(F)(F)F)c2)c1 [XI]"
measured_value = "1 to 10 µM"

[[record]]
molecule = "COc1ccccc1-c1cc(CC(=O)O)cc(OCc2ccccc2)c1 [XXX]"
measured_value = "10 to 100 µM"

[[record]]
molecule = "CC(Oc1cc(CC(=O)O)cc(-c2ccc(C(F)(F)F)cc2)c1)c1ccccc1 (centres unmarked) [XLVII]"
measured_value = "1 to 10 µM"

[[record]]
molecule = "O=C(O)Cc1cc(OCc2ccccc2)cc(-c2cc(F)cc(F)c2)c1 [XXVII]"
measured_value = "10 to 100 µM"

[[record]]
molecule = "CCCC(C(=O)O)c1cc(OCc2ccccc2)cc(-c2ccc(C(F)(F)F)cc2)c1 (centres unmarked) [VIII]"
measured_value = "< 1 µM"

[[record]]
molecule = "Cc1ccccc1-c1cc(CC(=O)O)cc(OCc2ccccc2)c1 [XXXI]"
measured_value = "10 to 100 µM"

[[record]]
molecule = "O=C(O)Cc1cc(OCc2cccc(C(F)(F)F)c2)cc(-c2ccc(C(F)(F)F)cc2)c1 [XLIX]"
measured_value = "1 to 10 µM"

[[record]]
molecule = "CC(C)c1ccc(COc2cc(CC(=O)O)cc(-c3ccc(C(F)(F)F)cc3)c2)cc1 [II]"
measured_value = "1 to 10 µM"

[[record]]
molecule = "O=C(O)Cc1cc(OCc2ccccc2)cc(-c2cccc(C(F)(F)F)c2)c1 [XXXIII]"
measured_value = "10 to 100 µM"

[[record]]
molecule = "O=C(O)Cc1cc(OCc2ccccc2)cc(-c2cccc(F)c2)c1 [XXXVI]"
measured_value = "10 to 100 µM"

[[record]]
molecule = "O=C(O)Cc1cc(OCc2ccccc2)cc(-c2ccccc2F)c1 [XXXIV]"
measured_value = "10 to 100 µM"

[[record]]
molecule = "CS(=O)(=O)c1ccc(-c2cc(CC(=O)O)cc(OCc3ccccc3)c2)cc1 [XVII]"
measured_value = "10 to 100 µM"

[[record]]
molecule = "O=C(O)Cc1cc(OCc2ccc(F)cc2)cc(-c2ccc(C(F)(F)F)cc2)c1 [I]"
measured_value = "1 to 10 µM"

[[record]]
molecule = "NC(=O)c1cccc(-c2cc(CC(=O)O)cc(OCc3ccccc3)c2)c1 [XV]"
measured_value = "10 to 100 µM"

[[record]]
molecule = "O=C(O)Cc1cc(OCc2ccccc2Cl)cc(-c2ccc(C(F)(F)F)cc2)c1 [LVIII]"
measured_value = "1 to 10 µM"

[[record]]
molecule = "O=C(O)Cc1cc(OCc2ccccc2)cc(-c2ccc(O)cc2)c1 [XXV]"
measured_value = "100 to 300 µM"

[[record]]
molecule = "Cc1cccc(-c2cc(CC(=O)O)cc(OCc3ccccc3)c2)c1 [XXXII]"
measured_value = "10 to 100 µM"

[[record]]
molecule = "O=C(O)Cc1cc(OCc2ccccc2)cc(-c2ccccc2)c1 [VII, (5-Benzyloxy-biphenyl-3-yl)-acetic acid]"
measured_value = "1 to 10 µM"

[[record]]
molecule = "CC(C)Oc1cccc(-c2cc(CC(=O)O)cc(OCc3ccccc3)c2)c1 [XXVIII]"
measured_value = "10 to 100 µM"

[[record]]
molecule = "O=C(O)Cc1cc(OCC2CC2)cc(-c2ccc(C(F)(F)F)cc2)c1 [XLII]"
measured_value = "1 to 10 µM"

[[record]]
molecule = "CC(C)(C(=O)O)c1cc(OCc2ccccc2)cc(-c2ccc(C(F)(F)F)cc2)c1 [XX]"
measured_value = "1 to 10 µM"

[[record]]
molecule = "CN(C)C(=O)c1ccc(COc2cc(CC(=O)O)cc(-c3ccc(C(F)(F)F)cc3)c2)cc1 [LIII]"
measured_value = "100 to 300 µM"

[[record]]
molecule = "O=C(O)Cc1cc(OCc2ccc(S(=O)(=O)N3CCOCC3)cc2)cc(-c2ccc(C(F)(F)F)cc2)c1 [LVI]"
measured_value = "10 to 100 µM"

[[record]]
molecule = "O=C(O)Cc1cc(OCc2ccc(C(=O)N3CCCC3)cc2)cc(-c2ccc(C(F)(F)F)cc2)c1 [LV]"
measured_value = "10 to 100 µM"

[[record]]
molecule = "Cc1ccc(COc2cc(CC(=O)O)cc(-c3ccc(C(F)(F)F)cc3)c2)cc1 [LX]"
measured_value = "1 to 10 µM"

[[record]]
molecule = "NS(=O)(=O)c1ccc(-c2cc(CC(=O)O)cc(OCc3ccccc3)c2)cc1 [XVIII]"
measured_value = "10 to 100 µM"

